- Tested on: Escherichia coli
- test.summary: Antibacterial activity against Escherichia coli UBMS 88-1 carrying tetB-resistant determinant
- Type: functional
parameter: MIC

compound: CN(C)c1cc(NC(=O)c2ccccc2F)c(O)c2c1CC1CC3[C@H](N(C)C)C(=O)C(C(N)=O)=C(O)[C@@]3(O)C(=O)C1=C2O (stereo partly drawn)
assayed.target: Escherichia coli
result: > 32 µg/mL
--
compound: Cc1ccccc1C(=O)Nc1cc(N(C)C)c2c(c1O)C(O)=C1C(=O)[C@]3(O)C(O)=C(C(N)=O)C(=O)[C@@H](N(C)C)C3CC1C2 (stereo partly drawn)
assayed.target: Escherichia coli
result: 2 µg/mL

Attention now turns to another entry.
Input line: Recorded MIC of CN(C)CCCC(=O)Nc1cc(N(C)C)c2c(c1O)C(=O)C1=C(O)[C@]3(O)C(O)=C(C(N)=O)C(=O)[C@@H](N(C)C)C3CC1C2 (stereo partly drawn) , please.
Output line: > 32 µg/mL

----------
Assignment: determine reported MIC for the given molecules.
- System: Escherichia coli
- test.summary: Antibacterial activity against Escherichia coli UBMS 88-1 carrying tetB-resistant determinant
- Assay type: functional
Numbers only, in µg/mL.

molecule: CN(C)c1cc(NC(=O)CNC2CCCC2)c(O)c2c1CC1CC3[C@H](N(C)C)C(=O)C(C(N)=O)=C(O)[C@@]3(O)C(=O)C1=C2O (stereo partly drawn)
MIC, µg/mL: 0.25

Input line: Recorded MIC of CN(C)c1cc(NS(C)(=O)=O)c(O)c2c1CC1CC3[C@H](N(C)C)C(=O)C(C(N)=O)=C(O)[C@@]3(O)C(=O)C1=C2O (stereo partly drawn) , please.
Output line: 8

----------
Assignment: determine reported MIC for the given molecules.
- Test system: Escherichia coli
- test.summary: Antibacterial activity against Escherichia coli UBMS 88-1 carrying tetB-resistant determinant
- Type: functional

molecule: CN(C)c1cc(NS(=O)(=O)c2ccccc2)c(O)c2c1CC1CC3[C@H](N(C)C)C(=O)C(C(N)=O)=C(O)[C@@]3(O)C(=O)C1=C2O (stereo partly specified)
assayed.target: Escherichia coli
result: 16 µg/mL
--
molecule: CN(C)c1cc(NC(=O)c2cccc(C(F)(F)F)c2)c(O)c2c1CC1CC3[C@H](N(C)C)C(=O)C(C(N)=O)=C(O)[C@@]3(O)C(=O)C1=C2O (stereo partly specified)
assayed.target: Escherichia coli
result: > 32 µg/mL
--
molecule: CN(C)c1cc(NC(=O)CCC2CCCC2)c(O)c2c1CC1CC3[C@H](N(C)C)C(=O)C(C(N)=O)=C(O)[C@@]3(O)C(=O)C1=C2O (stereo partly specified)
assayed.target: Escherichia coli
result: > 128 µg/mL
--
molecule: CN(C)c1cc(NC(=O)CO)c(O)c2c1CC1CC3[C@H](N(C)C)C(=O)C(C(N)=O)=C(O)[C@@]3(O)C(=O)C1=C2O (stereo partly specified)
assayed.target: Escherichia coli
result: > 32 µg/mL

# per-item lookup of MIC; items listed below
1. CN(C)c1cc(NC(=O)c2ccccc2)c(O)c2c1CC1CC3[C@H](N(C)C)C(=O)C(C(N)=O)=C(O)[C@@]3(O)C(=O)C1=C2O (stereo partly specified)
2. CN(C)c1ccc(O)c2c1C[C@H]1C[C@H]3[C@H](N(C)C)C(O)=C(C(N)=O)C(=O)[C@@]3(O)C(O)=C1C2=O

Output line:
> 32 µg/mL
16 µg/mL
